Test system: P388
Experiment Summary: Effect against cell growth of the P388 lymphocytic leukemia (PS system)
Assay type: functional
Measurement Setup: Mus musculus, read-out: ED50 (the source's name)
Listed here: items and their measured EC50.

Solved entries:
Compound | EC50
CCC(C)[C@H]([C@@H](CC(=O)N1CCC[C@H]1[C@H](OC)[C@H](C)C(=O)N[C@@H](Cc1ccccc1)c1nccs1)OC)N(C)C(=O)[C@@H](NC(=O)[C@H](C(C)C)N(C)C)C(C)C (some centres undefined) | > 1 µg/mL
CC[C@@H](C)[C@H]([C@@H](CC(=O)N1CCC[C@H]1[C@@H](OC)[C@H](C)C(=O)N[C@@H](Cc1ccccc1)c1nccs1)OC)N(C)C(=O)[C@@H](NC(=O)[C@H](C(C)C)N(C)C)C(C)C | > 1 µg/mL
CC[C@@H](C)[C@@H]([C@H](CC(=O)N1CCC[C@H]1[C@@H](OC)[C@H](C)C(=O)N[C@@H](Cc1ccccc1)c1nccs1)OC)N(C)C(=O)[C@@H](NC(=O)[C@H](C(C)C)N(C)C)C(C)C | > 1 µg/mL

Field: next compound
Entry CC[C@@H](C)[C@H]([C@@H](CC(=O)N1CCC[C@H]1[C@H](OC)[C@H](C)C(=O)N[C@@H](Cc1ccccc1)c1nccs1)OC)N(C)C(=O)[C@@H](NC(=O)[C@H](C(C)C)N(C)C)C(C)C needs its EC50 filled in; supply it.
> 1 µg/mL

Numbers sourced from ChEMBL document CHEMBL1125022.
